Data credit: paper PMC12429696

Can you tell me Index IC50 for the items I'm about to list?
# Tested on: isolated preparations of guinea pig ileal smooth muscle
# EXPERIMENT: Opioid activity on electrically stimulated isolated guinea pig ileum (GPI)
# Type: cell-based
# TEST_SETTINGS: inhibition of electrically stimulated contractions of GPI segment, Krebs solution 34 °C, 10^−9 to 10^−6 M, tests in duplicate
Square brackets hold non-standard residues; d marks the D form. Ends that are not written are not given here.
Numbers only, in nM.

Below: 3 substances and their reported Index IC50.
• RY[dA]FG-OH (N-terminus assumed; SMILES C[C@@H](NC(=O)[C@H](Cc1ccc(O)cc1)NC(=O)[C@@H](N)CCCNC(=N)N)C(=O)N[C@@H](Cc1ccccc1)C(=O)NCC(=O)O) [D8] = 3000
• H-Y[dA]F[dA]YPS-NHMe (SMILES CNC(=O)[C@H](CO)NC(=O)[C@@H]1CCCN1C(=O)[C@H](Cc1ccc(O)cc1)NC(=O)[C@@H](C)NC(=O)[C@H](Cc1ccccc1)NC(=O)[C@@H](C)NC(=O)[C@@H](N)Cc1ccc(O)cc1) [D2] = 9.5
• Cyclo-[L-Lys(H-Tyr-D-Ala-Phe-D-Ala-Tyr-Pro-Ser)-L-Glu(L-Trp-OH)] (head to tail) [D4] = 11

Batch: Index IC50 for all items listed.
1. Cyclo-[L-Lys(H-Tyr-D-Ala-Phe-D-Ala-Tyr-Pro-Ser)-L-Glu(L-Trp-NH2)] (head to tail) [D3]
2. H-Y[dA]F[dA]YPS-OH (SMILES C[C@@H](NC(=O)[C@H](Cc1ccccc1)NC(=O)[C@@H](C)NC(=O)[C@@H](N)Cc1ccc(O)cc1)C(=O)N[C@@H](Cc1ccc(O)cc1)C(=O)N1CCC[C@H]1C(=O)N[C@@H](CO)C(=O)O) [D5]

33
760

###

# Tested on: isolated preparations of guinea pig ileal smooth muscle
# EXPERIMENT: Opioid activity on electrically stimulated isolated guinea pig ileum (GPI)
# Type: cell-based
# TEST_SETTINGS: inhibition of electrically stimulated contractions of GPI segment, Krebs solution 34 °C, 10^−9 to 10^−6 M, tests in duplicate
Square brackets hold non-standard residues; d marks the D form.
ASSAY_ENDPOINT: Index IC50 (nM)
Answers are plain numbers, in nM.

- H-RY[dA]F[dA]-OH (SMILES C[C@@H](NC(=O)[C@H](Cc1ccccc1)NC(=O)[C@@H](C)NC(=O)[C@H](Cc1ccc(O)cc1)NC(=O)[C@@H](N)CCCNC(=N)N)C(=O)O) [D9]: 1000
- H-Y[dA]F[dA]-OH (SMILES C[C@@H](NC(=O)[C@H](Cc1ccccc1)NC(=O)[C@@H](C)NC(=O)[C@@H](N)Cc1ccc(O)cc1)C(=O)O) [D10, reference compound]: 1000

Turning now to a further substance:
For the substance shown here, H-Tyr-D-Ala-Phe-Gly-Tyr-Pro-Ser-NH2 [D1, reference compound] , give the reported Index IC50.
2.5
